Test system: T-47D breast
Assay: NCI-60 one-dose screen, 48 h (100 = growth as untreated, 0 = no growth, -100 = all killed)
Details: 10 µM unless noted
About 83,000 compounds went through this panel and 20% of them were active in at least one assay; those are over-represented in the sample as a whole.
value-kind: growth (%)

[[record]]
compound = "Nc1cc(N)nc(SCC(=O)O)n1"
value_kind = "growth"
numeric_result = 105

[[record]]
compound = "CN(C)CCCn1c2c(c3cc(-c4cccc(S(N)(=O)=O)c4)ccc3c1=O)C(=O)c1ccccc1-2"
value_kind = "growth"
numeric_result = 74.7

[[record]]
compound = "CCOC(=O)/C(=C/c1c(-c2ccccc2)[nH]c2ccccc12)C(=O)c1ccc(Cl)cc1"
value_kind = "growth"
numeric_result = 24.9

[[record]]
compound = "N#C/C(=C/c1ccc(O)c([N+](=O)[O-])c1)c1nc(-c2ccc([N+](=O)[O-])cc2)cs1"
value_kind = "growth"
numeric_result = 11.2

[[record]]
compound = "COc1ccc(Sc2[nH]c(C(C)=O)c3ccccc23)cc1"
value_kind = "growth"
numeric_result = 56.5

[[record]]
compound = "Cc1c(O)c(=O)ccn1-c1nc2ccccc2s1"
value_kind = "growth"
numeric_result = 92.4

[[record]]
compound = "Cc1cc(C)c(NC(=O)c2sc3nc4c(cc3c2N)CCCCCC4)c(C)c1"
value_kind = "growth"
numeric_result = 44.5

[[record]]
compound = "CC(/C=C/c1ccccc1)=N/NC(=O)c1ccncc1"
value_kind = "growth"
numeric_result = 99

[[record]]
compound = "Nc1c(C(=O)Nc2ccccc2Cl)sc2nc3c(cc12)CN(Cc1ccccc1)CC3"
value_kind = "growth"
numeric_result = 87.8

[[record]]
compound = "Oc1ccc(CNNc2ccnc3c(O)cccc23)c2cccnc12"
value_kind = "growth"
numeric_result = 29.6

[[record]]
compound = "Cc1cc(C)nc(NS(=O)(=O)c2ccc(Nc3ccc4c5c(n(CCCN(C)C)c(=O)c4c3)-c3ccccc3C5=O)cc2)n1"
value_kind = "growth"
numeric_result = 102

[[record]]
compound = "CCC[S@](=O)c1ccc2nc(NC(=O)OC)[nH]c2c1"
value_kind = "growth"
numeric_result = 87.7

[[record]]
compound = "CC[C@]12C=CCN3CC[C@@]4(c5ccc(OC)cc5N(C)[C@H]4[C@@](O)(C(=O)OC)[C@@H]1OC(=O)CCC(=O)O[C@H]1CC[C@H]4[C@@H]5CC[C@H]6CC(=O)CC[C@]6(C)[C@H]5CC[C@]14C)[C@@H]32"
value_kind = "growth"
numeric_result = 8.78

[[record]]
compound = "COc1cc(C2=NNC(c3ccc(N(C)C)cc3)C2)cc(OC)c1OC (centres undefined)"
value_kind = "growth"
numeric_result = 45.8

[[record]]
compound = "O=C(CCCC(=O)Nc1ccc(-n2nnc3cc(Cl)c(Cl)cc32)cc1)Nc1ccc(-n2nnc3cc(Cl)c(Cl)cc32)cc1"
value_kind = "growth"
numeric_result = 36.7

[[record]]
compound = "c1ccc(-c2n(Cc3ccc4ccccc4n3)cc[n+]2Cc2ccc3ccccc3n2)cc1"
value_kind = "growth"
numeric_result = 9.75

[[record]]
compound = "COc1cc2c(cc1OCCCOc1cc3c(cc1OC)C(=O)N1CC(F)(F)C[C@H]1C=N3)N=C[C@@H]1CC(F)(F)CN1C2=O"
value_kind = "growth"
numeric_result = 27.7

[[record]]
compound = "COc1cc(C2=N/C(=C\\c3cc4ccccc4nc3Oc3ccccc3)C(=O)N2C(=N)N)cc(OC)c1OC"
value_kind = "growth"
numeric_result = 49

[[record]]
compound = "NC(N)=NC(N)=Nc1cc2ccccc2c2ccccc12"
value_kind = "growth"
numeric_result = 30.2


These data points were gathered from PubChem BioAssay (NCI).
